Source of measurements: paper PMC3428523

Experiment: Plasma pharmacokinetics of barasertib and barasertib-hQPA (LC-MS/MS), 7-day continuous infusion in patients with AML
Format: in vivo, human
Conditions: human, iv, 1200 mg; plasma, n=4; barasertib 1,200 mg 7-day continuous i.v. infusion; geometric mean (coefficient of variation)
Description: This was an open-label, single-arm, single-center, Phase I study. Patients received barasertib 1,200 mg as a 7-day continuous intravenous infusion every 28 days. […] Based on preclinical studies in rat and dog, it was expected that an adequate recovery of total radioactivity, and thus comprehensive metabolite profiling, would be achieved following the administration of the specified [^14C]-barasertib regimen (data on file). […]
readout_label: AUC

Memo: CCN(CCO)CCCOc1ccc2c(Nc3cc(CC(=O)Nc4cccc(F)c4)[nH]n3)ncnc2c1 [Barasertib-hQPA] , reported AUC: 40400 ng·h/mL
